assay: Toxicity in lean Landrace Yorkshire Duroc pig at 30 nmol/kg, sc measured up to 96 hrs post dose; format: organism-based, Sus scrofa; details: in vivo
Numbered stars: 1 amine (or outer) side, 2 acyl side, 3 side chain; on linkers, the order of the positions; unused ones are H or OH. Square brackets hold non-standard residues; d marks the D form. Peptide text beside a SMILES is read from it. * marks the point of attachment. Phe(4-CH2SO3H) = N[C@@H](Cc1ccc(CS(=O)(=O)O)cc1)C(=O)O; sY = N[C@@H](Cc1ccc(OS(=O)(=O)O)cc1)C(=O)O; C18 diacid = O=C(O)CCCCCCCCCCCCCCCCC(=O)*; γGlu = O=C(O)[C@H](CCC(=O)[*:2])N[*:1]; βAsp = O=C(O)[C@H](CC(=O)[*:2])N[*:1]; NMeF = CN[C@@H](Cc1ccccc1)C(=O)O; dNMeD = CN[C@H](CC(=O)O)C(=O)O; Nle = CCCC[C@H](N)C(=O)O; AEEA = NCCOCCOCC(=O)O
Measure name: Activity

CCCC[C@H](NC(=O)[C@H](Cc1ccc(CS(=O)(=O)O)cc1)NC(=O)[C@H](CC(=O)O)NC(=O)COCCOCCNC(=O)COCCOCCNC(=O)CC[C@H](NC(=O)CCCCCCCCCCCCCCCCC(=O)O)C(=O)O)C(=O)NCC(=O)N[C@@H](Cc1c[nH]c2ccccc12)C(=O)N[C@@H](CCCC)C(=O)N(C)[C@H](CC(=O)O)C(=O)N(C)[C@@H](Cc1ccccc1)C(N)=O ({C18 diacid-γGlu-AEEA-AEEA}-D[Phe(4-CH2SO3H)][Nle]GW[Nle][dNMeD][NMeF]-NH2)	Non-Toxic
CCCC[C@H](NC(=O)[C@H](Cc1ccc(CS(=O)(=O)O)cc1)NC(=O)C[C@H](NC(=O)COCCOCCNC(=O)COCCOCCNC(=O)CC[C@H](NC(=O)CCCCCCCCCCCCCCCCC(=O)O)C(=O)O)C(=O)O)C(=O)NCC(=O)N[C@@H](Cc1c[nH]c2ccccc12)C(=O)N[C@@H](CCCC)C(=O)N(C)[C@H](CC(=O)O)C(=O)N(C)[C@@H](Cc1ccccc1)C(N)=O ({C18 diacid-γGlu-AEEA-AEEA-βAsp}-[Phe(4-CH2SO3H)][Nle]GW[Nle][dNMeD][NMeF]-NH2)	Non-Toxic
CCCC[C@H](NC(=O)[C@H](Cc1c[nH]c2ccccc12)NC(=O)CNC(=O)[C@H](CC(C)C)NC(=O)[C@H](Cc1ccc(O)cc1)NC(=O)[C@H](CC(=O)O)NC(=O)COCCOCCNC(=O)COCCOCCNC(=O)CC[C@H](NC(=O)CCCCCCCCCCCCCCCCC(=O)O)C(=O)O)C(=O)N(C)[C@@H](CC(=O)O)C(=O)N(C)[C@@H](Cc1ccccc1)C(N)=O	Non-Toxic
CC(C)C[C@H](NC(=O)[C@H](Cc1ccc(OS(=O)(=O)O)cc1)NC(=O)[C@H](CC(=O)O)NC(=O)COCCOCCNC(=O)COCCOCCNC(=O)CC[C@H](NC(=O)CCCCCCCCCCCCCCCCC(=O)O)C(=O)O)C(=O)NCC(=O)N[C@@H](Cc1c[nH]c2ccccc12)C(=O)N[C@@H](CCC(N)=O)C(=O)N(C)[C@H](CC(=O)O)C(=O)N(C)[C@@H](Cc1ccccc1)C(N)=O ({C18 diacid-γGlu-AEEA-AEEA}-D[sY]LGWQ[dNMeD][NMeF]-NH2)	Non-Toxic
